Subject Of Test: progestin receptor from rabbit uterus (Oryctolagus cuniculus, UniProt P06186)
Sequence (P06186 whole entry): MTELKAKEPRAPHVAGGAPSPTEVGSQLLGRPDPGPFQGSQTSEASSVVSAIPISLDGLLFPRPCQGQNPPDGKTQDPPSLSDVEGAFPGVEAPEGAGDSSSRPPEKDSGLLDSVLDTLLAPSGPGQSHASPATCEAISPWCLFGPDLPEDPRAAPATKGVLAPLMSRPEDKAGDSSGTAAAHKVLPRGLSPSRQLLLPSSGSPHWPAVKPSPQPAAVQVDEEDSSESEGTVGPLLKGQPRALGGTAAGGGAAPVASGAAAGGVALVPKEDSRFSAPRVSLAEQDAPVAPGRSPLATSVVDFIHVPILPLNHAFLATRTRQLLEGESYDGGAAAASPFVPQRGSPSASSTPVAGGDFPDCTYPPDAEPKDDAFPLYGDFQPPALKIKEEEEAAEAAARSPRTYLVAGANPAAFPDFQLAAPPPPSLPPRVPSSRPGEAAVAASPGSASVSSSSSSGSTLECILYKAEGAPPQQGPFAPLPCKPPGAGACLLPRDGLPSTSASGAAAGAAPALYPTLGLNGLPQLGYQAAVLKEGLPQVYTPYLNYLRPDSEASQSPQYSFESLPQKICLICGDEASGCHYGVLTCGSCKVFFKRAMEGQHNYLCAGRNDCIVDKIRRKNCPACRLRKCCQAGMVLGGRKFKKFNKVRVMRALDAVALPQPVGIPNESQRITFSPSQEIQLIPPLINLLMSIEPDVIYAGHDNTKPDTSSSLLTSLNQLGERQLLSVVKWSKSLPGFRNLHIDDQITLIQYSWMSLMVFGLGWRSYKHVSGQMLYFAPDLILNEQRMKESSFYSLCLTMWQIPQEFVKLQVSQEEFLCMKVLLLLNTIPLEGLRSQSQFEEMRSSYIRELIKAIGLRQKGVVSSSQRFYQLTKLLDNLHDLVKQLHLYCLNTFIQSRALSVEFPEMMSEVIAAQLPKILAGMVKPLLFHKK
pIC50: −log10 of the molar value.
Reported pIC50 values for a set of compounds
Endpoint Name: pIC50

{"Compound": "O=S(=O)(c1ccccc1)N1CCCC(c2cccc(Cl)c2)=N1 [Compound 95]", "Endpoint Name": "pIC50", "Reported Value": 7.99}
{"Compound": "O=S(=O)(c1ccc2ccccc2c1)N1CCCC(c2cccc(Cl)c2)=N1 [Compound 94]", "Endpoint Name": "pIC50", "Reported Value": 7.84}
{"Compound": "O=S(=O)(c1ccc(Cl)cc1)N1CCCC(c2ccc3c(c2)CCCC3)=N1 [Compound 88]", "Endpoint Name": "pIC50", "Reported Value": 7.99}
{"Compound": "O=S(=O)(c1ccc(Cl)c(Cl)c1)N1CCCC(c2ccc(Cl)c(C(F)(F)F)c2)=N1 [Compound 81]", "Endpoint Name": "pIC50", "Reported Value": 7.78}
{"Compound": "O=S(=O)(/C=C/c1ccccc1)N1CCCC(c2ccc(Cl)c(Cl)c2)=N1 [Compound 167]", "Endpoint Name": "pIC50", "Reported Value": 8.23}
